# testSystem: Human PKCζ C1 ZiF domain (Homo sapiens, UniProt Q05513)
# Sequence (Q05513 130-180 limits assumed): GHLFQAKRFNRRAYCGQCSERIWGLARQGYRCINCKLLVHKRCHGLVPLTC
# measurementDescription: Retinol binding by trp fluorescence quench, Gst fusion protein

| molecule | testSystem | readoutUnits | Kd |
| --- | --- | --- | --- |
| CC1=C(/C=C/C(C)=C/C=C/C(C)=C/CO)C(C)(C)CCC1 [retinol, all-trans retinol] | Human PKCζ C1 ZiF domain (Homo sapiens, UniProt Q05513) | nM | 34.1 |

====

# testSystem: Human PKCα C1A ZiF domain (Homo sapiens, UniProt P17252)
# measurementDescription: Retinol binding by trp fluorescence quench, Gst fusion protein
pKd: −log10 of the molar value.
readoutKind: pKd

| compound | testSystem | readoutKind | valueReported |
| --- | --- | --- | --- |
| CC1=C(/C=C/C(C)=C/C=C/C(C)=C/CO)C(C)(C)CCC1 [retinol, all-trans retinol] | Human PKCα C1A ZiF domain (Homo sapiens, UniProt P17252) | pKd | 7.68 |

The reported measurements were obtained from paper PMC2193291.
